Target: T1, mouse tissue factor pathway inhibitor (TFPI) (mouse, UniProt O54819 29-289, limits assumed)
T1 construct: bought; also called mTFPI; murine TFPI
T1 sequence (looked up): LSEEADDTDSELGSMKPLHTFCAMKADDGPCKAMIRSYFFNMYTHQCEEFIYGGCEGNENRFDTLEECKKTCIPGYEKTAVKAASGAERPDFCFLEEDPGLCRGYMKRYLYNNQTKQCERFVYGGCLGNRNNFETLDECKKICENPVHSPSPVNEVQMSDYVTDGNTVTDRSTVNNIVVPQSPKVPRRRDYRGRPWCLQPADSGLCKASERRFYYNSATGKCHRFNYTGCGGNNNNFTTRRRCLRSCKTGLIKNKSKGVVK
Assay: competitive ELISA
Each entry below carries its recorded variant/HC_D62R.
Numbers only; they are read as ratio.

Record excerpt, results attached:
>>> endpoint_value("4B7 HC N32D+D62R+Y112D/LC S32R+D33F+N35I+A60D+D97T (Fab, V domains shown) VH: QVQLQQSGPGLVKPSQTLSLTCAISGDSVSSDSAAWSWIRQSPGRGLEWLGIIYKRSKWYNRYAVSVKSRITINPDTSKNQFSLQLNSVTPEDTAVYYCARWHSDKHWGFDDWGQGTLVTVSS VL: DIVMTQSPLSLPVTPGEPASISCRSSQSLVFRFGITYLNWYLQKPGQSPQLLIYKGSNRDSGVPDRFSGSGSGTDFTLKISRVEAEDVGVYYCQQYTSYPLTFGQGTKVEIKR")
14.3
>>> endpoint_value("4B7 HC D62R+H107M+Y112D/LC S32R+D33F+N35I (Fab, V domains shown) VH: QVQLQQSGPGLVKPSQTLSLTCAISGDSVSSNSAAWSWIRQSPGRGLEWLGIIYKRSKWYNRYAVSVKSRITINPDTSKNQFSLQLNSVTPEDTAVYYCARWHSDKMWGFDDWGQGTLVTVSS VL: DIVMTQSPLSLPVTPGEPASISCRSSQSLVFRFGITYLNWYLQKPGQSPQLLIYKGSNRASGVPDRFSGSGSGTDFTLKISRVEAEDVGVYYCQQYDSYPLTFGQGTKVEIKR")
50.3

Attention now turns to another entry.
Request: I have this binder here, 4B7 HC N32D+D62R+Y112D/LC S32R+D33F+N35I+L51R+D97T (Fab, V domains shown) VH: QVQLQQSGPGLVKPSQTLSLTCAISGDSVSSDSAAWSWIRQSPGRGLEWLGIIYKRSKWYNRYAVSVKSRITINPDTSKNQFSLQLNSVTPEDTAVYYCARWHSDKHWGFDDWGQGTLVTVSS VL: DIVMTQSPLSLPVTPGEPASISCRSSQSLVFRFGITYLNWYLQKPGQSPQRLIYKGSNRASGVPDRFSGSGSGTDFTLKISRVEAEDVGVYYCQQYTSYPLTFGQGTKVEIKR , and I need its recorded variant/HC_D62R.
Response: 5.2
